# testSystem: Delta-type opioid receptor (Homo sapiens)
# assayDetails: % stimulation of [35S]GTP-gamma-S, binding in recombinant human Opioid receptor delta 1 transfected into CHO cells
# Format: functional, cell-based
Recorded Stimulation for the following compounds
Return type: number; implicit unit %.

Prompt: Stimulation for COc1ccc2c(c1O)[C@]13CCN(C)C(C2)[C@]12CCC(=O)[C@H]3/C(=C(\C)c1ccccc1)C2 ?
Response: 108

Prompt: Would you kindly repeat that for COc1ccc2c(c1O)[C@]13CCN(C)C(C2)[C@@]12C/C(=C(/C)c1ccccc1)[C@@H]3c1[nH]c3ccccc3c1C2 ?
Response: 168

Prompt: Would you kindly repeat that for CN1CC[C@]23c4c5ccc(O)c4O[C@@]2(C)c2[nH]c4ccccc4c2C[C@@]3(C/C=C/c2ccccc2)C1C5 ?
Response: 79

Prompt: Would you kindly repeat that for CC(C)=CC[C@@]12Cc3c([nH]c4ccccc34)[C@]3(C)Oc4c(O)ccc5c4[C@]13CCN(C)C2C5 ?
Response: 43

Prompt: Would you kindly repeat that for COc1ccc2c(c1O)[C@]13CCN(C)C(C2)[C@@]12C/C(=C\c1ccccc1)[C@@H]3c1[nH]c3ccccc3c1C2 ?
Response: 87

Lab note: next compound to report on.
Prompt: Stimulation for COc1ccc2c(c1O)[C@]13CCN(C)C(C2)[C@]12CCC(=O)[C@H]3/C(=C/c1ccccc1)C2 ?
Response: 80

====

# testSystem: Kappa-type opioid receptor (Homo sapiens)
# assayDetails: Agonistic activity towards Opioid receptor kappa 1
# Format: functional
measure: pEC50
Quick note: pEC50 values are minus log10 of concentrations in mol/L.

Consider the worked cases shown below.
Prompt: pEC50 for COc1ccc2c(c1O)[C@]13CCN(C)C(C2)[C@@]12C/C(=C(/C)c1ccccc1)[C@@H]3c1[nH]c3ccccc3c1C2 ?
Response: 7.08

Prompt: Would you kindly repeat that for COc1ccc2c(c1O)[C@]13CCN(C)C(C2)[C@]12CCC(=O)[C@H]3/C(=C(\C)c1ccccc1)C2 ?
Response: 8.47

Prompt: Would you kindly repeat that for CC(C)=CC[C@@]12Cc3c([nH]c4ccccc34)[C@]3(C)Oc4c(O)ccc5c4[C@]13CCN(C)C2C5 ?
Response: 6.02

Prompt: Would you kindly repeat that for COc1ccc2c(c1O)[C@]13CCN(C)C(C2)[C@@]12CC(=C(C)C)[C@@H]3c1[nH]c3ccccc3c1C2 ?
Response: 6.06

Prompt: Would you kindly repeat that for COc1ccc2c(c1O)[C@]13CCN(C)C(C2)[C@@]12C/C(=C\c1ccccc1)[C@@H]3c1[nH]c3ccccc3c1C2 ?
Response: 6.49

Prompt: Would you kindly repeat that for CN1CC[C@]23c4c5ccc(O)c4O[C@@]2(C)c2[nH]c4ccccc4c2C[C@@]3(C/C=C/c2ccccc2)C1C5 ?
Response: 5.69

Lab note: next compound to report on.
Prompt: pEC50 for COc1ccc2c(c1O)[C@]13CCN(C)C(C2)[C@]12CCC(=O)[C@H]3/C(=C/c1ccccc1)C2 ?
Response: 7.76

====

# testSystem: Delta-type opioid receptor (Homo sapiens)
# assayDetails: Agonistic activity towards Opioid receptor delta 1
Recorded EC50 for the following compounds
Just so you know, I need the unit written after the number.

Consider the worked cases shown below.
Prompt: Entry COc1ccc2c(c1O)[C@]13CCN(C)C(C2)[C@@]12CC(=C(C)C)[C@@H]3c1[nH]c3ccccc3c1C2 , system Delta-type opioid receptor (Homo sapiens): what EC50 was measured?
Response: 211 nM

Prompt: Would you kindly repeat that for CN1CC[C@]23c4c5ccc(O)c4O[C@@]2(C)c2[nH]c4ccccc4c2C[C@@]3(C/C=C/c2ccccc2)C1C5 ?
Response: 21.8 nM

Prompt: Would you kindly repeat that for COc1ccc2c(c1O)[C@]13CCN(C)C(C2)[C@@]12C/C(=C(/C)c1ccccc1)[C@@H]3c1[nH]c3ccccc3c1C2 ?
Response: 368 nM

More entries:
Prompt: Entry CC(C)=CC[C@@]12Cc3c([nH]c4ccccc34)[C@]3(C)Oc4c(O)ccc5c4[C@]13CCN(C)C2C5 , system Delta-type opioid receptor (Homo sapiens): what EC50 was measured?
Response: 90.1 nM

====

Recorded Ki for the following compounds
# testSystem: Opioid receptors; mu & delta (Homo sapiens, UniProt P41143+P35372)
# assayDetails: Ratio of mu/delta-opioid receptors Binding affinity
# Type: protein assay
Number only, no unit.

Prompt: Entry COc1ccc2c(c1O)[C@]13CCN(C)C(C2)[C@@]12C/C(=C(/C)c1ccccc1)[C@@H]3c1[nH]c3ccccc3c1C2 , system Opioid receptors; mu & delta (Homo sapiens, UniProt P41143+P35372): what Ki was measured?
Response: 0.6

More entries:
Prompt: Entry COc1ccc2c(c1O)[C@]13CCN(C)C(C2)[C@@]12CC(=C(C)C)[C@@H]3c1[nH]c3ccccc3c1C2 , system Opioid receptors; mu & delta (Homo sapiens, UniProt P41143+P35372): what Ki was measured?
Response: 3.2

Prompt: Would you kindly repeat that for C/C=C1\C[C@@]23Cc4c([nH]c5ccccc45)[C@@H]1[C@@]21CCN(C)C3Cc2ccc(OC)c(O)c21 ?
Response: 1.5

Prompt: Would you kindly repeat that for COc1ccc2c(c1O)[C@]13CCN(C)C(C2)[C@]12CCC(=O)[C@H]3/C(=C/c1ccccc1)C2 ?
Response: 0.08

====

# testSystem: UniProtKB P35372
# Sequence (P35372 whole entry): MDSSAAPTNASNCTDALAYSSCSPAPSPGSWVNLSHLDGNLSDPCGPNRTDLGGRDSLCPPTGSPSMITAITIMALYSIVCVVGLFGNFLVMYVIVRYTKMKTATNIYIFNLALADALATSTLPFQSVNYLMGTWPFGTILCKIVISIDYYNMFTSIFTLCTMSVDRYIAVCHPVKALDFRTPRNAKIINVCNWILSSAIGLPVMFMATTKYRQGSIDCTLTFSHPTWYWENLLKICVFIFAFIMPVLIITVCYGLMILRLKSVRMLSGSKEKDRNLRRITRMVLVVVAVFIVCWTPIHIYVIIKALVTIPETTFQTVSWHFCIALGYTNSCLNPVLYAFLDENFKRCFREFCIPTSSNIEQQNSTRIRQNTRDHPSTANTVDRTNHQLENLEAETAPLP
# assayDetails: % stimulation of [35S]GTP-gamma-S, binding in recombinant human Opioid receptor mu 1 transfected into CHO cells
# Format: functional, cell-based
Recorded Stimulation for the following compounds
Return type: number; implicit unit %.

Consider the worked cases shown below.
Prompt: Stimulation for CC(C)=CC[C@@]12Cc3c([nH]c4ccccc34)[C@]3(C)Oc4c(O)ccc5c4[C@]13CCN(C)C2C5 ?
Response: 72

Prompt: Would you kindly repeat that for COc1ccc2c(c1O)[C@]13CCN(C)C(C2)[C@]12CCC(=O)[C@H]3/C(=C/c1ccccc1)C2 ?
Response: 123

Prompt: Would you kindly repeat that for COc1ccc2c(c1O)[C@]13CCN(C)C(C2)[C@@]12C/C(=C\c1ccccc1)[C@@H]3c1[nH]c3ccccc3c1C2 ?
Response: 110

More entries:
Prompt: Stimulation for CN1CC[C@]23c4c5ccc(O)c4O[C@@]2(C)c2[nH]c4ccccc4c2C[C@@]3(C/C=C/c2ccccc2)C1C5 ?
Response: 85

Prompt: Would you kindly repeat that for COc1ccc2c(c1O)[C@]13CCN(C)C(C2)[C@@]12CC(=C(C)C)[C@@H]3c1[nH]c3ccccc3c1C2 ?
Response: 52

Prompt: Would you kindly repeat that for COc1ccc2c(c1O)[C@]13CCN(C)C(C2)[C@@]12C/C(=C(/C)c1ccccc1)[C@@H]3c1[nH]c3ccccc3c1C2 ?
Response: 144

Prompt: Would you kindly repeat that for C/C=C1\C[C@@]23Cc4c([nH]c5ccccc45)[C@@H]1[C@@]21CCN(C)C3Cc2ccc(OC)c(O)c21 ?
Response: 41

Prompt: Would you kindly repeat that for COc1ccc2c(c1O)[C@]13CCN(C)C(C2)[C@]12CCC(=O)[C@H]3/C(=C(\C)c1ccccc1)C2 ?
Response: 108

====

# testSystem: Delta-type opioid receptor (Homo sapiens, UniProt P41143)
# Sequence (P41143 whole entry): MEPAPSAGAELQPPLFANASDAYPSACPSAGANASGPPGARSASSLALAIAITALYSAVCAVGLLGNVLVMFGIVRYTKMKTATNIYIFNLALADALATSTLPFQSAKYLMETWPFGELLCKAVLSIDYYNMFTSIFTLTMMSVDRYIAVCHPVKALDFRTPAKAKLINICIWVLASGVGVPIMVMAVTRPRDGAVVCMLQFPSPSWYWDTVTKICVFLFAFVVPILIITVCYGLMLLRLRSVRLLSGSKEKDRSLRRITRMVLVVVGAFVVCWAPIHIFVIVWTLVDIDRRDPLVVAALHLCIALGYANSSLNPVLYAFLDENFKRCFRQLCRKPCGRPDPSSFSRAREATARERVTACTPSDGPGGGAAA
# assayDetails: Binding affinity for human Opioid receptor delta 1 transfected into chinese hamster ovary cells by displacing [3H]CI-DPDPE radioligand
Rule: Ki below 20 nM gives fulfilled, anything at or above gives not fulfilled.

Prompt: Below 20 nM on Ki? Entry COc1ccc2c(c1O)[C@]13CCN(C)C(C2)[C@@]12CC(=C(C)C)[C@@H]3c1[nH]c3ccccc3c1C2
Response: not fulfilled

Prompt: Would you kindly repeat that for COc1ccc2c(c1O)[C@]13CCN(C)C(C2)[C@@]12C/C(=C(/C)c1ccccc1)[C@@H]3c1[nH]c3ccccc3c1C2 ?
Response: not fulfilled

Prompt: Would you kindly repeat that for CC(C)=CC[C@@]12Cc3c([nH]c4ccccc34)[C@]3(C)Oc4c(O)ccc5c4[C@]13CCN(C)C2C5 ?
Response: not fulfilled

Prompt: Would you kindly repeat that for COc1ccc2c(c1O)[C@]13CCN(C)C(C2)[C@]12CCC(=O)[C@H]3/C(=C(\C)c1ccccc1)C2 ?
Response: fulfilled

More entries:
Prompt: Below 20 nM on Ki? Entry COc1ccc2c(c1O)[C@]13CCN(C)C(C2)[C@]12CCC(=O)[C@H]3/C(=C/c1ccccc1)C2
Response: fulfilled

Prompt: Would you kindly repeat that for COc1ccc2c(c1O)[C@]13CCN(C)C(C2)[C@@]12C/C(=C\c1ccccc1)[C@@H]3c1[nH]c3ccccc3c1C2 ?
Response: fulfilled

Prompt: Would you kindly repeat that for CN1CC[C@]23c4c5ccc(O)c4O[C@@]2(C)c2[nH]c4ccccc4c2C[C@@]3(C/C=C/c2ccccc2)C1C5 ?
Response: fulfilled

Prompt: Would you kindly repeat that for C/C=C1\C[C@@]23Cc4c([nH]c5ccccc45)[C@@H]1[C@@]21CCN(C)C3Cc2ccc(OC)c(O)c21 ?
Response: not fulfilled

====

# testSystem: Kappa-type opioid receptor (Homo sapiens, UniProt P41145)
# Sequence (P41145 whole entry): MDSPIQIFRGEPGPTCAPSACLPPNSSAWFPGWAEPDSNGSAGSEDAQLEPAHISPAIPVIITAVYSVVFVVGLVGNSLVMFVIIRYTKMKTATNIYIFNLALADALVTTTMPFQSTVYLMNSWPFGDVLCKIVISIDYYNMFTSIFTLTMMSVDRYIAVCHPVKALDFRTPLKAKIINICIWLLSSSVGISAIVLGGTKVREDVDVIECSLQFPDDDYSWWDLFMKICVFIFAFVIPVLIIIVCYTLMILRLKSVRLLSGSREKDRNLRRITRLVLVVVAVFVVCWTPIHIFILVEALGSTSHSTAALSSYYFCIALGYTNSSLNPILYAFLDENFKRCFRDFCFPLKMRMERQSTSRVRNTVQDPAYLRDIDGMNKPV
# assayDetails: % stimulation of [35S]GTP-gamma-S, binding of compound in recombinant human Opioid receptor kappa 1 transfected into CHO cells
# Type: functional, cell-based
Recorded Stimulation for the following compounds
Return type: number; implicit unit %.

Consider the worked cases shown below.
Prompt: Stimulation for COc1ccc2c(c1O)[C@]13CCN(C)C(C2)[C@]12CCC(=O)[C@H]3/C(=C/c1ccccc1)C2 ?
Response: 85

Prompt: Would you kindly repeat that for CC(C)=CC[C@@]12Cc3c([nH]c4ccccc34)[C@]3(C)Oc4c(O)ccc5c4[C@]13CCN(C)C2C5 ?
Response: 31

More entries:
Prompt: Stimulation for COc1ccc2c(c1O)[C@]13CCN(C)C(C2)[C@@]12C/C(=C(/C)c1ccccc1)[C@@H]3c1[nH]c3ccccc3c1C2 ?
Response: 97

Prompt: Would you kindly repeat that for COc1ccc2c(c1O)[C@]13CCN(C)C(C2)[C@@]12CC(=C(C)C)[C@@H]3c1[nH]c3ccccc3c1C2 ?
Response: 44
